In this section, each of the compounds is paired with its reported pEC50.
target: Free fatty acid receptor 1 (Homo sapiens, UniProt O14842); test: Transactivation of recombinant human FFAR1 expressed in CHOK1 cells co-expressing Galpha15 assessed as increase in calcium flux measured after 20 secs for 100 secs by FLIPR assay; assay type: functional, cell-based; conditions: read-out: EC50
Sequence (O14842 whole entry): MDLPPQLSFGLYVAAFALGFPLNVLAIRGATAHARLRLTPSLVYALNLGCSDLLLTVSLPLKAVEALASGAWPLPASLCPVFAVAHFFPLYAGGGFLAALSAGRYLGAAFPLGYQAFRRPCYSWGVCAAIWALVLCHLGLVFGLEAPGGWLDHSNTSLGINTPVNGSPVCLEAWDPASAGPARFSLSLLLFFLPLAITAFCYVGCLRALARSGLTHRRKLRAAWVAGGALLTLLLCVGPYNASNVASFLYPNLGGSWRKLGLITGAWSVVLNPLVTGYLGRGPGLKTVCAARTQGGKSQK
Scale explanation: pEC50 corresponds to minus log10 of a concentration expressed in moles per litre.

Example entries and their recorded answers appear below.
Compound: O=C1NC(=O)C(Cc2ccc(OCCn3ccc4ccccc43)cc2)S1 (configuration not stated)
Result value: 5.66
--
Compound: COc1ccc(C(OCCOc2ccc(CC3SC(=O)NC3=O)cc2)c2ccccc2)cc1 (configuration not stated)
Result value: 4.75
--
Compound: O=C1NC(=O)C(Cc2ccc(OCCn3cnc4ccccc43)cc2)S1 (configuration not stated)
Result value: 5.37
--
Compound: O=C1NC(=O)C(Cc2ccc(OCCn3ccc4ccc(Cl)cc43)cc2)S1 (configuration not stated)
Result value: 5.30
--
Compound: O=C1NC(=O)C(Cc2ccc(OCCOC(c3ccccc3)c3ccc(C(F)(F)F)cc3)cc2)S1 (configuration not stated)
Result value: 4.95
--
Compound: O=C1NC(=O)C(Cc2ccc(OCCOC(c3ccccc3)c3ccccc3)cc2)S1 (configuration not stated)
Result value: 4.67

What value of pEC50 has been reported for the following compound? "CCCCC/C=C/C/C=C/C/C=C/CCCCC(=O)O"
6.62
